System: ICK
Condition Parameters: concentration: 1 μM, replicates: in singlicate; n = 1;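 also: KINOMEscan kinase panel screen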
Outcome Measure: %Inh (%)
Use % as the unit, but write only the number.

Solved entries (count: 4):
O=C(Nc1cccc(-c2nn3ncccc3c2-c2ccnc(Nc3cccc(C(F)(F)F)c3)n2)c1)c1c(F)cccc1F : 8
CN(C1=C(c2ccccc2)C(=O)NC1=O)c1ccccc1 : 13
COc1cc2ncn(-c3cc(OCc4sccc4Cl)c(C(N)=O)s3)c2cc1OC : 12
Cc1cccc(-c2nc(Nc3ccc4ncsc4c3)c3ccccc3n2)n1 : 17

Task: Entry Cc1nnc(-c2ccc3ncc(-c4ccc(S(C)=O)cc4)n3c2)o1 (stereo not drawn) , system ICK: what %Inh was measured?
Result: 22

Task: Record lookup: for ICK, what %Inh belongs to O=C1NC(=O)C(N2CCc3ccccc32)=C1c1cccc(Cl)c1 ?
Result: 40

Task: Given the entry Cc1c2ccc(N(C)c3ccnc(Nc4cccc(S(N)(=O)=O)c4)n3)cc2nn1Cc1ccccc1.Cl.Cl , what %Inh was observed with ICK?
Result: 0

Task: Entry N#Cc1ccc(-c2cc(-c3c[nH]nc3-c3ccccn3)ccn2)cc1 , system ICK: what %Inh was measured?
Result: 11

Task: What is its %Inh for ICK? Entry: O=C1Cc2cc(Nc3nc(NCc4cccc(S(=O)(=O)C(F)(F)F)c4)ncc3C(F)(F)F)ccc2N1
Result: 0

Task: Which %Inh is reported with ICK for this entry: c1ccc(-c2cc(-c3c[nH]nc3-c3ccccn3)ccn2)cc1 ?
Result: 0

Task: Please state recorded %Inh (tested on ICK) of COc1ccc(Nc2ncc(C#N)c(Nc3ccccc3C(N)=O)n2)cc1N1CCN(C)CC1.Cl
Result: 97.6

Task: Item: COc1ccc(Nc2nccc(N3CCC(NC(=O)Nc4cccc(C(C)=O)c4)C3)n2)cc1 (stereo not drawn) Test system: ICK Read-out: %Inh Value: ?
Result: 0

Task: Quick check: %Inh on ICK, item CNc1ncnc2[nH]ncc12 ?
Result: 0

Task: Provide value of %Inh for this record tested with ICK: CCc1ccnc(/C=C/c2n[nH]c3cc(Sc4ccccc4C(=O)NC)ccc23)c1
Result: 0

Task: Observed %Inh on ICK for COc1ccc(S(=O)(=O)NC2CCN(c3cc(C)nc(Nc4cccc(C#N)c4)n3)CC2)cc1.O=C(O)C(F)(F)F , please.
Result: 0

Task: Please tell me: %Inh of O=C(NCCNc1ccnc(Nc2ccc(F)cc2)n1)Nc1ccccc1F , system ICK?
Result: 0

Task: API: value(readout= %Inh, system= ICK, query= O=c1cc(N2CCOCC2)nc2n(Cc3cccc(C(F)(F)F)c3)ccn12 )
Result: 0

Task: What is its %Inh for ICK? Entry: Cc1cccc(-c2nc(-c3ccc(S(C)(=O)=O)cc3)sc2-c2ccncc2)c1
Result: 0

Task: Record lookup: for ICK, what %Inh belongs to Cc1cn2c(=O)cc(N3CCOCC3)nc2n1Cc1cccc(Cl)c1Cl ?
Result: 12

Task: Reported %Inh for ICK, given O=C(Nc1n[nH]c2cc(-c3cccc(F)c3)ccc12)C1CC1 ?
Result: 34

Task: Give %Inh (ICK) of the following compound: CC(C)Oc1ccc2c(-c3ccnc(Nc4ccc(N5CCN(C)CC5)cc4)n3)cnn2n1
Result: 49

* * *

System: VPS34
Construct: gene PIK3C3
Condition Parameters: concentration: 1 μM, replicates: in singlicate; n = 1
Catalogue of %Inh values
State just the number; it will be interpreted in %.

CNc1ncnc2[nH]ncc12 : 30
COc1cc2c(cc1OC[C@@H](O)CO)ncc1c3ccc(C#N)cc3[nH]c21 : 0
c1ccc(-c2cc(-c3c[nH]nc3-c3ccccn3)ccn2)cc1 : 18
C[C@@H](Oc1cc(-n2cnc3ccc(NC(=O)NC(C)(C)C)cc32)sc1C(N)=O)c1ccccc1Cl : 0
O=C(NCCNc1ccnc(Nc2ccc(F)cc2)n1)Nc1ccccc1F : 0

Task: Reported %Inh for CN(C(=O)c1ccc(-c2cc(-c3c[nH]nc3-c3ccccn3)ccn2)cc1)C1CCOCC1 : what is it?
Result: 24
